Parameter pEC50: see the listing below.
assay.system: hFXR (Homo sapiens)
protocol.text: In Vitro FXR Assay (TK): TK-ECRE-luc reporter in transfected CV-1 cells
measurement.conditions: 18 hrs incubation, luminescence
pEC50: −log10 of the molar value.

Field: example entries. Status: answers known.
COc1ccc(C23CCC(CN(c4cccc(-c5cnn(C6(C)CCC6)c5)n4)C(=O)[C@H]4CC[C@H](OC(=O)N5CC(O)C5)CC4)(CC2)CC3)cc1C [Compound 25.24]	≥ 7.30
COc1ccc([C@H]2CC[C@H](CN(c3cc(-c4cnc(C(C)C)s4)ccn3)C(=O)[C@H]3CC[C@H](OC(=O)NC4COC4)CC3)CC2)cc1C [Compound 2.55]	≥ 7.30
COc1ccc(C23CCC(CN(c4cc(-n5cnc(C(C)C)n5)ccn4)C(=O)[C@H]4CC[C@H](OC(=O)N5CC(O)C5)CC4)(CC2)CC3)cc1C [Compound 4.18]	≥ 7.30
COc1ccc(C23CCC(CN(c4cc(-c5cnn(C6CCSCC6)c5)ccn4)C(=O)[C@H]4CC[C@H](OC(=O)N5CC(O)C5)CC4)(CC2)CC3)cc1C [Compound 26.21]	≥ 7.30
CCC(=O)N[C@H]1CC[C@H](C(=O)N(C[C@H]2CC[C@H](c3ccc(OC)c(C)c3)CC2)c2cccc(-c3cnn(C(C)C)c3)c2)CC1 [Compound 10]	≥ 7.30

Could you now consider this next compound?
Field pEC50 (entry COc1ccc(C23CCC(CN(c4cnnc(-c5cnn(C(C)C)c5)c4)C(=O)[C@H]4CC[C@H](OC(=O)N5CC(O)C5)CC4)(CC2)CC3)cc1C [Compound 4.61] ) reads 6.00 to 7.30

----------
assay.system: hFXR (Homo sapiens)
protocol.text: In Vitro FXR Assay (TK): TK-ECRE-luc reporter in transfected CV-1 cells
measurement.conditions: 18 hrs incubation, luminescence
pEC50: −log10 of the molar value.
reported.property: pEC50

Below: 2 compounds and their reported pEC50.
COc1ccc([C@H]2CC[C@H](CN(c3cccc(-c4cnn(C(C)C)c4)c3)C(=O)[C@H]3CC[C@H](OC(=O)NCCCF)CC3)CC2)cc1C	≥ 7.30
COc1ccc([C@H]2CC[C@H](CN(c3cccc(-c4cnn(C(C)C)c4)c3)C(=O)[C@H]3CC[C@H](OC(=O)N4CCN(C)CC4)CC3)CC2)cc1C	≥ 7.30

Let's switch to this compound now.
The compound listed as COc1ccc(C23CCC(CN(c4cc(-c5coc(C6CC6)n5)ccn4)C(=O)[C@H]4CC[C@H](OC(=O)N5CC(CO)C5)CC4)(CC2)CC3)cc1C shows pEC50 equal to ≥ 7.30

----------
assay.system: hFXR (Homo sapiens, UniProt Q96RI1)
Sequence (Q96RI1 1-486): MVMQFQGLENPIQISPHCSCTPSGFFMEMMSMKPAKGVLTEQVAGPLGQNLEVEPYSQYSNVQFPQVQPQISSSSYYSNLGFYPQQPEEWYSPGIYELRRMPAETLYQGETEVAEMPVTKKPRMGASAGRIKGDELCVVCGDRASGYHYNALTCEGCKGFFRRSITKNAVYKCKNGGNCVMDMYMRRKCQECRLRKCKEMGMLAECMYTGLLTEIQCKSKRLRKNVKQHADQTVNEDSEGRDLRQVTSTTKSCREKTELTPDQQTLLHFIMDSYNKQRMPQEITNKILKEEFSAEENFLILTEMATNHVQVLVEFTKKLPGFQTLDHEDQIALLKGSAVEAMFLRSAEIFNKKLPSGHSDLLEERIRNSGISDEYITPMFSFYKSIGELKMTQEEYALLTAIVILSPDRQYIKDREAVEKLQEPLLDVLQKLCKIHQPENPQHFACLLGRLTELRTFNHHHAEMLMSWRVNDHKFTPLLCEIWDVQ
Sequence (P19793 1-462 partner): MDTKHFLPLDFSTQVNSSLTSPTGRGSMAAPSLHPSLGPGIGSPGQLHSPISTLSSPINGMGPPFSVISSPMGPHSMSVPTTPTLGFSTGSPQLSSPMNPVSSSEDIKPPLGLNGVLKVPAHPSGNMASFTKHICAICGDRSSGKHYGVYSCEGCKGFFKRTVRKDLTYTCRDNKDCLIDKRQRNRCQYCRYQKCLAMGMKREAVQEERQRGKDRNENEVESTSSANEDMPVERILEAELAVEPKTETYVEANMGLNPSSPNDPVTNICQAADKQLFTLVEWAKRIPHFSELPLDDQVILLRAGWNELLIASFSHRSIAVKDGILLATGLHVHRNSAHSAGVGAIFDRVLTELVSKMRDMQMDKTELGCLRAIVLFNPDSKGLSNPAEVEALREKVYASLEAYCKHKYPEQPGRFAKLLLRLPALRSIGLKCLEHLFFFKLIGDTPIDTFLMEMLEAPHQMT
protocol.text: In Vitro FXR Assay (TK): TK-ECRE-luc reporter in transfected CV-1 cells
measurement.conditions: 18 hrs incubation, luminescence
Recorded EC50 values for a group of compounds are listed next.

Reference set, count: 3
CCn1cc(-c2ccnc(N(C[C@H]3CC[C@H](c4ccc(OC)c(C)c4)CC3)C(=O)[C@H]3CC[C@H](OC(=O)N4CC(O)C4)CC3)c2)cn1 [Compound 2.22]	≤ 50 nM
COCC(=O)N[C@H]1CC[C@H](C(=O)N(CC23CCC(c4ccc(OC)c(C)c4)(CC2)CC3)c2cc(-c3coc(C4CC4)n3)ccn2)CC1 [Compound 9.10]	≤ 50 nM
COc1ccc(C23CCC(CN(c4cc(-c5cnn(C(C)C)c5)cc(Cl)n4)C(=O)[C@H]4CC[C@H](OC(=O)N5CC(O)C5)CC4)(CC2)CC3)cc1C [Compound 4.40]	≤ 50 nM

get_value(item= COc1ccc([C@H]2CC[C@H](CN(c3cccc(-c4cnn(C(C)C)c4)c3)C(=O)[C@H]3CC[C@H](NC(=O)C4CC(=O)C4)CC3)CC2)cc1C [Compound 14.01] , readout=EC50) returns ≤ 50 nM

Reported EC50 for COc1ccc(C23CCC(CN(c4cccc(-c5cnn(C(C)C)c5)c4F)C(=O)[C@H]4CC[C@H](OC(=O)N5CC(O)C5)CC4)(CC2)CC3)cc1C [Compound 25.04] was ≤ 50 nM

Entry under test: COc1ccc(C23CCC(CN(c4cc(-c5cnn(C(C)C)c5)ccn4)C(=O)[C@H]4CC[C@H](NC(=O)CO)CC4)(CC2)CC3)cc1C [Compound 9.02] . Its EC50 was ≤ 50 nM

// sample COc1ccc([C@H]2CC[C@H](CN(c3cc(-c4ccc(N(C)C)nc4)ccn3)C(=O)[C@H]3CC[C@H](OC(=O)N4CC(O)C4)CC3)CC2)cc1C [Compound 3] , its EC50 was ≤ 50 nM

The reported value for COc1ccc([C@H]2CC[C@H](CN(c3cc(-c4cc(C(C)C)on4)ccn3)C(=O)[C@H]3CC[C@H](OC(=O)N4CC(O)C4)CC3)CC2)cc1C [Compound 2.56] in terms of EC50 is ≤ 50 nM

get_value(item= COc1ccc([C@H]2CC[C@H](CN(c3cc(-c4cnc(C5CC5)s4)ccn3)C(=O)[C@H]3CC[C@H](OC(=O)NCC(C)(C)O)CC3)CC2)cc1C [Compound 2] , readout=EC50) returns ≤ 50 nM

In plain terms, COc1ccc(C23CCC(CN(C(=O)C4CCC(OC(=O)N5CC(O)C5)CC4)c4cc(C5CCCN(C(C)C)C5)ccn4)(CC2)CC3)cc1C (stereo not drawn) [Compound 26.18] has a documented EC50 of 1000 to 10000 nM

Entry under test: COCC(=O)N[C@H]1CC[C@H](C(=O)N(CC23CCC(c4ccc(OC)c(C)c4)(CC2)CC3)c2cc(-c3cnc(C(C)C)s3)ccn2)CC1 [Compound 9.05] . Its EC50 was ≤ 50 nM

Lab note: COc1ccc([C@H]2CC[C@H](CN(c3cccc(-c4cnn(C(C)C)c4)c3)C(=O)[C@H]3CC[C@H](NC(=O)C4CC(O)C4)CC3)CC2)cc1C (stereo partly drawn) [Compound 14.02] gave EC50 of 50 to 1000 nM
